target.under.test: Human CD3εδ-Fc (human) (UniProt P04234)
Sequence (chain, as listed by the source mutant, chain 1 of 2): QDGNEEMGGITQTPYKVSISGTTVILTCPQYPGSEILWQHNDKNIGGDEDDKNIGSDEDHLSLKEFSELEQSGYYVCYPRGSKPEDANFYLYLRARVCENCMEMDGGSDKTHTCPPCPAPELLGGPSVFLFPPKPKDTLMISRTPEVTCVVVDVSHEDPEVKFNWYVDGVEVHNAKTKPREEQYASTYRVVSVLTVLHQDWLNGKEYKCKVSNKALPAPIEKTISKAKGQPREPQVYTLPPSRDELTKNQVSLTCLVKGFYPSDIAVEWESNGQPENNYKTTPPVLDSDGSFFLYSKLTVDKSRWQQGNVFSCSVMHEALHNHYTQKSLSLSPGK
Sequence (P04234 22-105, stated change not applied, chain 2 of 2): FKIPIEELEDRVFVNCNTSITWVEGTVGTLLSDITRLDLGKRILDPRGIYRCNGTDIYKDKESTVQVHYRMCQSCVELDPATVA
experimental.details: KD of scFv-Fc or IgG on human CD3εδ-Fc; instrument not given
Attribute: pKd
Note: pKd values are expressed as the negative base-10 logarithm of concentration in M.

INSERT INTO measurements (binder, reported_property, quantitative_readout) VALUES
  ('ADI-46359 (antibody, V domains shown, also called Ab42) VH: QVQLVQSGAEVKKPGASVKVSCKASGFNIKDYYMHWVRQAPGQRLEWIGWIDLENANTVYDAKFQGRVTITRDTSASTAYMELSSLRSEDTAVYYCARDAYGQYFYDVWGQGTLVTVSS VL: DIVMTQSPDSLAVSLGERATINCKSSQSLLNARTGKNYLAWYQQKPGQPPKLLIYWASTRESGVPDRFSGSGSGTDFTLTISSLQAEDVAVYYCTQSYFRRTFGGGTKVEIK', 'pKd', 9.05),
  ('ADI-46369 (antibody, V domains shown, also called Ab33) VH: QAQLVQSGAEVKKPGASVKVSCKASGFNIKDYYMHWVRQAPGQRLEWIGWIDLENANTVYDTKFQGRVTITRDTSASTAYMELSSLRSEDTAVYYCARDAYGRYFYDVWGQGTLVTVSS VL: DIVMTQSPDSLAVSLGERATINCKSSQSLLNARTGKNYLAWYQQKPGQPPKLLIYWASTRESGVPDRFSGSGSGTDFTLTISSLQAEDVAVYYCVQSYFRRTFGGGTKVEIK', 'pKd', 9.04);

[in] May I ask what pKd has been recorded for ADI-45959 (antibody, V domains shown, also called Ab13) VH: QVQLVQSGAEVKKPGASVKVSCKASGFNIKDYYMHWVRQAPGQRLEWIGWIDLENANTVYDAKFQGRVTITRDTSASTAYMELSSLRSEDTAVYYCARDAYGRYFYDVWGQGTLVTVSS VL: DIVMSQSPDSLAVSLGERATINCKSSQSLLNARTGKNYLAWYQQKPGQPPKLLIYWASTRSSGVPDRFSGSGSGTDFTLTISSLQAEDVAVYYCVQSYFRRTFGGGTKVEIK ?
[out] 9.89
